Hello, the source for this data is patent US20220259593A1, in case you need it.

Quick list: Mean relative activity per entry.
- Tested on: K562 CRISPRi cells
- ASSAY REMARKS: Constant region variant library pooled growth screen, K562
- Type: cell-based, human
- CONDITION LABEL: sgRNA constant region variants; activity relative to the original, un-modified constant region cr995

MOLECULE	Mean relative activity
cr802 (nucleic acid, listed as DNA, chemistry not fully specified) guide: GTTTAAGAGCTAAGCTGGAAACAGCATAGCAAGTTTAAATAACGCTAGTCGGTTATCAAGTTGAAAAACTGGCAGCGAGTCGCTGCT	−0.005377
cr282 (nucleic acid, listed as DNA, chemistry not fully specified) guide: GTTTAAGAGCTAAGCTGGAAACAGCATAGCAAGTTTAAATAAGGCTAGTCCGTTATCAACTTGAAAAAGTGCACCCGAGTCGGGTGT	1.049
